# credit: the supplement of paper PMC10724198

Test system: Saccharomyces cerevisiae
test description: protein stability index of tFT-peptide fusion (C-terminal peptide) (PSI (0-1 scale)); higher = more stable (slower turnover)
experimental conditions: genetic background: wild type; temperature: 30 C
protein stability index values by entry
# print the numeric value only

construct_sequence=KKKKKHKKPIES target_or_test_system="Saccharomyces cerevisiae" readout_value=0.666
construct_sequence=PFALPPPSPFPP target_or_test_system="Saccharomyces cerevisiae" readout_value=0.712
construct_sequence=FSPLLQSPLLAP target_or_test_system="Saccharomyces cerevisiae" readout_value=0.692
construct_sequence=IGTKKVINDKLL target_or_test_system="Saccharomyces cerevisiae" readout_value=0.675

// returns reported protein stability index for input `CDWRSMEWRGCW`
0.693

Request the reported protein stability index associated with `VTFPSAHSSRRF`
0.716

Look up protein stability index for this sequence: `GSLWGAFFRGLL`
0.688

Give its protein stability index value. Item: `PPPPPPPSSSSL`
0.388

Sample `RSNLGLNLVLAI` — what was its protein stability index?
0.591

* * *

Test system: Saccharomyces cerevisiae
test description: protein stability index of tFT-peptide fusion (C-terminal peptide) (PSI (0-1 scale)); higher = more stable (slower turnover)
experimental conditions: genetic background: wild type; temperature: 30 C
parameter measured: protein stability index
Answer with a bare number; do not write a unit.

# example entries with known answers
construct_sequence="YDEDEGSDYDFI [SUP45 C-terminal 12 aa]" readout_value=0.684
construct_sequence="PAAIKQAIASNV [TRX2 C-terminal 12 aa]" readout_value=0.657
construct_sequence="LYLLLARVFEIW [SNF11 C-terminal 12 aa]" readout_value=0.561
construct_sequence="LYGPSKTRKFFD [VMA4 C-terminal 12 aa]" readout_value=0.692

protein stability index for GHNWLIFTRRRL [CBT1 C-terminal 12 aa] ?
0.707

// lookup protein stability index for FYLHGNGSDNLF [YGR153W C-terminal 12 aa]
0.711

# input sequence: SQAGLMSNEEVL [CCC2 C-terminal 12 aa] ; wanted: its protein stability index
0.699

What value of protein stability index has been reported for the following sequence? NTTHYNASLLRQ [PHO5 C-terminal 12 aa]
0.673

Returns the measured protein stability index for the input sequence. Input: GPEKAAELAFLA [YML079W C-terminal 12 aa]
0.65

I would be grateful if you could share the reported protein stability index for PEGEAPEAFSMK [SEC14 C-terminal 12 aa] .
0.684

For MGSSRRTSLDFF [YBR071W C-terminal 12 aa] , what is its reported protein stability index?
0.693

Quick check: protein stability index of VGDIVWKIRNIN [TTI1 C-terminal 12 aa] ?
0.199

Look up protein stability index: KKIIKKKDFYHR [YOR011W-A C-terminal 12 aa]
0.706

Give the measured protein stability index of VVCFVSYQKLSS [OPI9 C-terminal 12 aa] .
0.168

Report protein stability index for NEPTNSDIVELD [UBA2 C-terminal 12 aa] please.
0.676

Tell me the measured protein stability index of VVVVPSVVETRK [SSO2 C-terminal 12 aa] , please.
0.668

Requested field: protein stability index. Item: VQSTDIAAMQKL [EFB1 C-terminal 12 aa]
0.683

Data request, read-out protein stability index, for NGTAKSAQSTTV [YAR019W-A C-terminal 12 aa]
0.729

Can you share its protein stability index? I mean this sequence: MDPMSPLNKDVS [YMR196W C-terminal 12 aa]
0.73

What protein stability index value was documented for this sequence, KAVEFTTTALSS [MKT1 C-terminal 12 aa] ?
0.747

Which protein stability index is reported for this sequence? EALTKASNVNKL [CIT3 C-terminal 12 aa]
0.65

* * *

Test system: Saccharomyces cerevisiae
test description: protein stability index of tFT-peptide fusion (C-terminal peptide) (PSI (0-1 scale)); higher = more stable (slower turnover)
experimental conditions: genetic background: cdc53-1; temperature: 37 C
sequences and their reported protein stability index
No unit in the answer, only the number.

Observe how each entry below is paired with its result.
construct_sequence=LSRSAGVGVWVG target_or_test_system="Saccharomyces cerevisiae" parameter_measured="protein stability index" readout_value=0.72
construct_sequence=WSFYVVGRLLVN target_or_test_system="Saccharomyces cerevisiae" parameter_measured="protein stability index" readout_value=0.383
construct_sequence=FYAAILCLLFSC target_or_test_system="Saccharomyces cerevisiae" parameter_measured="protein stability index" readout_value=0.512
construct_sequence=VGTGVGEGGGVV target_or_test_system="Saccharomyces cerevisiae" parameter_measured="protein stability index" readout_value=0.729
construct_sequence=IGFSPSFQLYSA target_or_test_system="Saccharomyces cerevisiae" parameter_measured="protein stability index" readout_value=0.756
construct_sequence=SFSIPILLLAFP target_or_test_system="Saccharomyces cerevisiae" parameter_measured="protein stability index" readout_value=0.223
construct_sequence=YVGILCTGILTV target_or_test_system="Saccharomyces cerevisiae" parameter_measured="protein stability index" readout_value=0.54
construct_sequence=RGVRALFLLLSF target_or_test_system="Saccharomyces cerevisiae" parameter_measured="protein stability index" readout_value=0.513

Continue with the next sequence.
# lookup: protein stability index of `RQILYYRERFIP`
0.715

* * *

System: Saccharomyces cerevisiae
test description: protein stability index of tFT-peptide fusion (C-terminal peptide) (PSI (0-1 scale)); higher = more stable (slower turnover)
experimental conditions: genetic background: cdc53-1; temperature: 37 C
Measured protein stability index, listed per entry for reference.
Please give only the number in your answer, with no unit.

construct_sequence=SVFVVVVLVFWY readout_value=0.3

Recorded protein stability index for `PPCSLLPPPPAP` with Saccharomyces cerevisiae, please?
0.72

Hi! What's the reported protein stability index for `FNFFFSSVFLLV` on Saccharomyces cerevisiae?
0.252

Which measured protein stability index belongs to `QIGSMLGVQGVG` , tested on Saccharomyces cerevisiae?
0.526

Lab note: need protein stability index with Saccharomyces cerevisiae for entry `PWGVGLACLFLL` , please look it up.
0.683

API: value(readout= protein stability index, system= Saccharomyces cerevisiae, query= `SFYAGLVVGGVG` )
0.616

Form: Entry = `HSRRRRPTPQSL` | System = Saccharomyces cerevisiae | protein stability index = ____
0.65

Write down the reported protein stability index of `PLLLLLPSLLLV` , test system: Saccharomyces cerevisiae.
0.413

* * *

Test system: Saccharomyces cerevisiae
test description: protein stability index of tFT-peptide fusion (C-terminal peptide) (PSI (0-1 scale)); higher = more stable (slower turnover)
experimental conditions: genetic background: wild type; temperature: 30 C
parameter measured: protein stability index
Respond numerically, and do not add a unit to the figure.

// worked examples, protein stability index included
construct_sequence=PSPYSLSPYFLV readout_value=0.302
construct_sequence=VGFIVCFFFSFG readout_value=0.313
construct_sequence=RWRYHAYVITIL readout_value=0.0812
construct_sequence=GVVCCGFFFLVV readout_value=0.41

If you can, please state the reported protein stability index value of `CPICDFLFLALF` .
0.424

* * *

Some sequences, each annotated with its measured protein stability index.
Test system: Saccharomyces cerevisiae
test description: protein stability index of tFT-peptide fusion (C-terminal peptide) (PSI (0-1 scale)); higher = more stable (slower turnover)
experimental conditions: genetic background: wild type; temperature: 30 C
Reply with just the number.

construct_sequence=FHICTQLIFITC readout_value=0.192
construct_sequence=RRNARRARARWR readout_value=0.637
construct_sequence=YRGSNWEGDTPS readout_value=0.667
construct_sequence=PLSPLPPSPGPS readout_value=0.766
construct_sequence=FEHFKCRRRPVI readout_value=0.723

I would be grateful if you could share the reported protein stability index for `PFVSGFGRPGYC` .
0.751

Tell me the measured protein stability index of `PPPLPTPSLPPP` , please.
0.702

Any idea what its protein stability index is? The sequence is `GQFVISVRFLYE`
0.515

Name the reported protein stability index value associated with the sequence `GSGGGEVCGCGG`
0.681

Which value of protein stability index has been reported for `PPPLLPFPPIPR` in the records?
0.697

If you can, please state the reported protein stability index value of `PRSPPLTHVSLH` .
0.697

Quick check: protein stability index of `KLSTGRGRTGYV` ?
0.698

// protein stability index lookup, key: `LATLLIRLLGQA`
0.496

Field request: protein stability index | item: `ERSQTKIANDKK`
0.719

// query protein stability index value for entry `HPPTLCPLSRRH`
0.659

# get_value(readout='protein stability index', item= `RYEQRKNRRQKL` )
0.799

# protein stability index lookup, item `GVGGGRVLLLRL`
0.614

Using the record for `FMFELSPVDEWA` , report its protein stability index.
0.791

// protein stability index lookup, key: `WSVCLLLLGRFC`
0.466

* * *

Reported protein stability index is given for each of the following sequences.
Tested on: Saccharomyces cerevisiae
test description: protein stability index of tFT-peptide fusion (C-terminal peptide) (PSI (0-1 scale)); higher = more stable (slower turnover)
experimental conditions: genetic background: wild type; temperature: 30 C
Hey, just send me the number, nothing else.

construct_sequence=YGIGNVNTGRGP target_or_test_system="Saccharomyces cerevisiae" parameter_measured="protein stability index" readout_value=0.703
construct_sequence=GGGIGWRAGEFG target_or_test_system="Saccharomyces cerevisiae" parameter_measured="protein stability index" readout_value=0.673
construct_sequence=VQGSRKGSRERW target_or_test_system="Saccharomyces cerevisiae" parameter_measured="protein stability index" readout_value=0.683

Tell me reported protein stability index for `HILSPRPAIGVL` , tested with Saccharomyces cerevisiae.
0.612
